# TARGET_OR_SYSTEM: T4 DNA polymerase (gp43) (Bacteriophage T4)
# Sequence: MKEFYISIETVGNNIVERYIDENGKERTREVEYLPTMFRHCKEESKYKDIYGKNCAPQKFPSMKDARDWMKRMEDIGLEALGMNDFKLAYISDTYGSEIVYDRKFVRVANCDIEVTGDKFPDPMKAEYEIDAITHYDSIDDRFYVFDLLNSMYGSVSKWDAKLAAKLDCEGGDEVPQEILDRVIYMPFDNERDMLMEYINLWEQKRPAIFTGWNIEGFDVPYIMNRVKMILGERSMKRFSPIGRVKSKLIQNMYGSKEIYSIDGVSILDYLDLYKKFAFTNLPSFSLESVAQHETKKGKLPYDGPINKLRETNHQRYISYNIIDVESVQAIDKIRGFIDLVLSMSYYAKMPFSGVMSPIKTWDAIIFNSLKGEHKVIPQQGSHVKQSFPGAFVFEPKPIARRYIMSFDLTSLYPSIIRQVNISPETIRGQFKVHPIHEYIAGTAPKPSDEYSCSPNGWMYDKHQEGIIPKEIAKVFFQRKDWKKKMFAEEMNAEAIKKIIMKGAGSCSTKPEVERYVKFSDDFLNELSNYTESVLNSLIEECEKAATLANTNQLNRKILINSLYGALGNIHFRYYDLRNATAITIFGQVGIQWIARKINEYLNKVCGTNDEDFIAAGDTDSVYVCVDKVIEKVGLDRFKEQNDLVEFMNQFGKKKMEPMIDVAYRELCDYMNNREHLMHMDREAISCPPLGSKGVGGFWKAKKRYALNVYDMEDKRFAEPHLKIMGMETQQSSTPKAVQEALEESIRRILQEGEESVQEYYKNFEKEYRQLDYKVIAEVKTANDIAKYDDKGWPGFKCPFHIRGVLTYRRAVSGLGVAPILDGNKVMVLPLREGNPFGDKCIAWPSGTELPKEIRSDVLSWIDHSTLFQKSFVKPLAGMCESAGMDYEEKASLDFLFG
# ASSAY: filter
# SETTINGS: random loop population, 50-fold lower affinity
REPORTED_PROPERTY: pKd
Remember, pKd is on a log scale: it is -log10 of the molar concentration.

response.value for AUAUUCCUUAGUUUAUAGCCCNNNNNNNNAGGCUCUUGAUUG [gene 43 operator RNA random 8N loop pool] (field: pKd) = 6.60

###

# TARGET_OR_SYSTEM: human tissue plasminogen activator (htPA) (Homo sapiens)
# ASSAY: filter
# SETTINGS: 150 mM NaAc, 50 mM Tris-acetate pH 7.5
REPORTED_PROPERTY: Kd

Item: GGGAGCUCAGAAUAAACGCUCAANNNNNNNNNNNNNNNNNNNNNNNNNNNNNNUUCGACAUGAGGCCCGGAUCCGGC [30N candidate pool] | Kd: 0.07 µM

###

# TARGET_OR_SYSTEM: T4 DNA polymerase (gp43) (Bacteriophage T4) (UniProt P04415)
# Sequence: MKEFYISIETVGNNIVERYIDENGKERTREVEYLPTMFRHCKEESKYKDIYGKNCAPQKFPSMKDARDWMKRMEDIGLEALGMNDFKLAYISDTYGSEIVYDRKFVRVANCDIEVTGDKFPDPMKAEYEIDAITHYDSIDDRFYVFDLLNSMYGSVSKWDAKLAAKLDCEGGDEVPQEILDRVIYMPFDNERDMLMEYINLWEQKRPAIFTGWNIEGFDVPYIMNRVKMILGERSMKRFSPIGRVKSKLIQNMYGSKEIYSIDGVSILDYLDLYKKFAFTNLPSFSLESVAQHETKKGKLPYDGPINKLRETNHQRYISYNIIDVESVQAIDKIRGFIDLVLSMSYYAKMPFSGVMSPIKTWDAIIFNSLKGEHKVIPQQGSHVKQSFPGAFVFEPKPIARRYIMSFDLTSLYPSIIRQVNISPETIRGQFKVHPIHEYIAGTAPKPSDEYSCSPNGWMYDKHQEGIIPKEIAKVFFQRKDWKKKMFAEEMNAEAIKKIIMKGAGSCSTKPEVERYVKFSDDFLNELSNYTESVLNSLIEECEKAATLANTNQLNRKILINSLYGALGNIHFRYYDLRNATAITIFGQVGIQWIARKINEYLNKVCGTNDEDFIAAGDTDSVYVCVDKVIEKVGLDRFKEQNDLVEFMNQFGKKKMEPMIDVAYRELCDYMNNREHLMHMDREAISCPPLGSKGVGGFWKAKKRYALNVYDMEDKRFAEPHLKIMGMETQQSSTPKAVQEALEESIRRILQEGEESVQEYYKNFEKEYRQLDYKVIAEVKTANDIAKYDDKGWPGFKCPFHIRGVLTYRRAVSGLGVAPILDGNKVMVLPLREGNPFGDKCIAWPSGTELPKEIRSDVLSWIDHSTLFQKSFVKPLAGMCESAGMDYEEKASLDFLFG
# ASSAY: FP
# SETTINGS: filter binding; 200 mM KOAc, 50 mM Tris-HCl pH 7.7, 37 C
REPORTED_PROPERTY: Kd (nM)
Your answer should be a plain number; it is taken to be in nM.

Value of measured Kd for the entry AUAUUCCUUAGUUUAUAGCCCNNNNNNNNAGGCUCUUGAUUG [gp43 RNA wild-type loop AAUAACUC] : 5
